System: S. aureus RN4220
Test description: growth inhibition call (relative growth <= 0.2)
Experimental setup: 50 µM
Hit rate of the full screen: of about 39,000 compounds, about 500 (1.3%) were called active. Many of the other results were omitted from the sample, so actives are more common in it than they were.
Could you please pick one outcome from this set? yes = active, no = inactive

GET /call?item= Cc1ccc(S(=O)(=O)N(C)C[C@H]2Oc3c(NC(=O)C4CC4)cccc3C(=O)N([C@@H](C)CO)C[C@@H]2C)cc1 returns the recorded outcome of this test. no

GET /call?item= CC(C)(O/N=C(\C(=O)N[C@@H]1C(=O)N2C(C(=O)O)=C(C[N+]3(CCNC(=O)c4ccc(O)c(O)c4Cl)CCCC3)CS[C@H]12)c1csc(N)n1)C(=O)O returns the recorded outcome of this test. no

GET /call?item= COCC#Cc1ccc([C@H]2[C@@H](CO)N3C(=O)CN(C(=O)c4ccncc4)C[C@H]23)cc1 returns the recorded outcome of this test. no

GET /call?item= O=C1CN(/N=C/c2ccc([N+](=O)[O-])o2)C(=O)N1 returns the recorded outcome of this test. yes

---

Test system: S. aureus RN4220
Test description: growth inhibition call (relative growth <= 0.2)
Experimental setup: 50 µM
The campaign covered roughly 39,000 compounds. About 500 (1.3%) were called active. For the sample, actives were picked, then their nearest neighbours and some compounds at random.
Measured property: growth inhibition call

C[C@H](N)C(=O)NCC(=O)N[C@H]1CSSC[C@@H](C(=O)O)NC(=O)[C@H](CO)NC(=O)[C@H]([C@@H](C)O)NC(=O)[C@H](Cc2ccccc2)NC(=O)[C@H]([C@@H](C)O)NC(=O)[C@H](CCCCN)NC(=O)[C@H](Cc2c[nH]c3ccccc23)NC(=O)[C@H](Cc2ccccc2)NC(=O)[C@H](Cc2ccccc2)NC(=O)[C@H](CC(N)=O)NC(=O)[C@H](CCCCN)NC1=O    inactive
CCCN(C)C[C@@H]1OCCCC[C@H](C)Oc2ccc(NC(=O)Nc3ccc(C(F)(F)F)cc3)cc2C(=O)N([C@H](C)CO)C[C@@H]1C    inactive
C[C@H]1CN([C@@H](C)CO)C(=O)c2cc(NC(=O)CCN3CCOCC3)ccc2O[C@@H]1CN(C)Cc1ccc2c(c1)OCO2    inactive
NNC(=O)c1ccccc1O    inactive
C[C@@H]1CN([C@@H](C)CO)C(=O)c2cc(NC(=O)Nc3cccc4ccccc34)ccc2O[C@@H]1CN(C)S(=O)(=O)c1ccc(F)cc1    inactive

Shift focus to the following entry.
What does the data say about its growth inhibition call? Entry: CCC(=O)N[C@H]1C=C[C@@H](CC(=O)OC)O[C@H]1CO inactive

---

System: S. aureus RN4220
Test description: growth inhibition call (relative growth <= 0.2)
Experimental setup: 50 µM
About 500 (1.3%) of roughly 39,000 compounds were called active. What follows is part of a selection rich in actives, with near analogues and random picks from the rest.
Could you please pick one outcome from this set? active, inactive

GET /call?item= NC(C(=O)NC1C(=O)N2C(C(=O)O)=C(Cl)CSC12)c1ccccc1 (centres undefined) returns the recorded outcome of this test. active

GET /call?item= C/C=C/c1ccc2c(c1)O[C@@H](CN(C)C(=O)c1ccc3c(c1)OCO3)[C@@H](C)CN([C@@H](C)CO)S2(=O)=O returns the recorded outcome of this test. inactive

GET /call?item= CC1=C(C(=O)O)N2C(=O)[C@@H](NC(=O)[C@H](N)c3ccccc3)[C@H]2SC1 returns the recorded outcome of this test. inactive

GET /call?item= CC1=C(C(=O)O)N2C(=O)C(NC(=O)C(N)c3ccccc3)C2SC1 (centres undefined) returns the recorded outcome of this test. inactive

GET /call?item= N[C@@H](C(=O)N[C@@H]1C(=O)N2C(C(=O)O)=C(Cl)CS[C@H]12)c1ccccc1 returns the recorded outcome of this test. active

GET /call?item= CN1CCN(CC#N)C(=O)C12CCN([C@H]1CCOC1)CC2 returns the recorded outcome of this test. inactive

GET /call?item= CN1C[C@H](C(N)=O)CC1=O returns the recorded outcome of this test. inactive

GET /call?item= CC1=C(C(=O)O)N2C(=O)[C@H](NC(=O)[C@@H](N)c3ccccc3)[C@H]2SC1 returns the recorded outcome of this test. inactive

GET /call?item= CO[C@@H]1CN(C)C(=O)c2ccc(NS(=O)(=O)c3ccccc3)cc2OC[C@@H](C)N(C(=O)NC(C)C)C[C@H]1C returns the recorded outcome of this test. inactive
